Biological target: hTRPV1 (Homo sapiens, UniProt Q8NER1)
Sequence (Q8NER1 whole entry): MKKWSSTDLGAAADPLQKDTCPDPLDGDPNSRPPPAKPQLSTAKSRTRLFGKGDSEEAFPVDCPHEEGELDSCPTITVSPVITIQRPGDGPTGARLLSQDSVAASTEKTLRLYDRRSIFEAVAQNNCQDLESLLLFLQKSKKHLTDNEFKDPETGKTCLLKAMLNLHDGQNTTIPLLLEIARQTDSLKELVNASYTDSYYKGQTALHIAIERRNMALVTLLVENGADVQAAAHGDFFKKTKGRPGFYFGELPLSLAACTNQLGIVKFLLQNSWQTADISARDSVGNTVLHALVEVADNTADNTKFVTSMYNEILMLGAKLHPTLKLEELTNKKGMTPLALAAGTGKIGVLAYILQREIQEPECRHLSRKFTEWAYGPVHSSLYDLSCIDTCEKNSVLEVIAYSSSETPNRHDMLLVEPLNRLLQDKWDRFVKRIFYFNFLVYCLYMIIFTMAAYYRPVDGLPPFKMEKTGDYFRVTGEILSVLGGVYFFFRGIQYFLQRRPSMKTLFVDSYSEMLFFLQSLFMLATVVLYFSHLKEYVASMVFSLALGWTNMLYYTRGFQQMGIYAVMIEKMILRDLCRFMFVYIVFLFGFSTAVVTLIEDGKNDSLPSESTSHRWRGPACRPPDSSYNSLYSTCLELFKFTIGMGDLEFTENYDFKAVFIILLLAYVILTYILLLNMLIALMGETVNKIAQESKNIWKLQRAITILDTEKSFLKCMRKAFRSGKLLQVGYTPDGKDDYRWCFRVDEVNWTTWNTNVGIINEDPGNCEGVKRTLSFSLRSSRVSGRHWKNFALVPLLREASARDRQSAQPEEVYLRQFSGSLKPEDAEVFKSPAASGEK
Experiment: hTRPV1 antagonism, activation by heat
Type: cell-based
Measured attribute: IC50

Entry C[C@H](C(=O)NCc1cc(C(C)(C)C)nn1-c1cccc(Cl)c1)c1ccc(NS(C)(=O)=O)c(F)c1 [Compound 13S] : reported IC50 = ?
> 5 µM

###

Molecular target: hTRPV1 (Homo sapiens, UniProt Q8NER1)
Test: hTRPV1 antagonism, inhibition of activation by capsaicin
Type: cell-based
Settings: hTRPV1 in CHO cells, capsaicin 100 nM
Measured attribute: hTRPV1 antagonism toward capsaicin (in words)

# Compound, Test target, Endpoint value
rows = [
    ("C[C@H](C(=O)NCc1cc(C(C)(C)C)nn1-c1ccc(F)c(Cl)c1)c1ccc(NS(C)(=O)=O)c(F)c1 [Compound 14S]", "hTRPV1 (Homo sapiens, UniProt Q8NER1)", "high potency"),
    ("CC(C(=O)NCc1cc(C(C)(C)C)nn1-c1ccc(F)c(Cl)c1)c1ccc(NS(C)(=O)=O)c(F)c1 (centres unmarked) [Compound 14]", "hTRPV1 (Homo sapiens, UniProt Q8NER1)", "high potency"),
]

Reference for the values: paper PMC6988736
